system: T84 cells; assay: Inhibition of T84 colon carcinoma cell proliferation (WST-1, Example 1); assay type: cell-based; conditions: Homo sapiens, 24 hours incubation
pIC50: −log10 of the molar value.
measure: pIC50

Inquiry: Which pIC50 value belongs to CCCC1(CCC)CCC2(CCN(CCCN(CC)CC)C2)CC1.O=C(O)/C=C\C(=O)O.O=C(O)/C=C\C(=O)O ?
Reply text: 5.90 to 6.20

----------
test system: CaCo-2 cells; assay: Inhibition of CaCo-2 colon carcinoma cell proliferation (WST-1, Example 1); assay type: cell-based; conditions: Homo sapiens, 24 hours incubation
measure: IC50

Inquiry: Which IC50 value belongs to CCCC1(CCC)CCC2(CCN(CCCN(CC)CC)C2)CC1.O=C(O)/C=C\C(=O)O.O=C(O)/C=C\C(=O)O ?
Reply text: 625 to 1250 nM

----------
tested on: HUVEC cells; experiment: Inhibition of HUVEC proliferation (WST-1, Example 2); assay type: cell-based; details: Homo sapiens
measure: IC50

Inquiry: Which IC50 value belongs to CCCC1(CCC)CCC2(CCN(CCCN(CC)CC)C2)CC1.O=C(O)/C=C\C(=O)O.O=C(O)/C=C\C(=O)O ?
Reply text: 1250 to 2500 nM

src = patent US20050250801A1
